Source of measurements: ChEMBL document CHEMBL4118131

Tested on: B16-F10
assay.method.text: Cytotoxicity in mouse B16/F10 cells assessed as reduction in cell viability incubated for 48 hrs by MTT assay
Format: functional, cell-based
reported.conditions: B16-F10, 48 h
reported.endpoint: pIC50
Kindly note that pIC50 refers to -log10 of the concentration in mol/L and answer with the value alone.

Known results for compounds:
Fill in: pIC50 of "Cc1ccsc1CN(C(=O)Nc1ccccc1)n1cnnc1" is ___
4.51

# input compound: "O=C(NCc1ccccc1)N(Cc1ccccn1)n1cnnc1" ; wanted: its pIC50
4.51

Further cases:
So what's the measured pIC50 for this one? "O=C(Nc1ccccc1)N(Cc1ccccn1)n1cnnc1"
4.63

###

Overview of recorded pIC50 for various compounds
Tested on: B16-F10
assay.method.text: Cytotoxicity in mouse B16/F10 cells assessed as reduction in cell viability incubated for 48 hrs by MTT assay
Format: functional, cell-based
reported.conditions: B16-F10, 48 h
The quantity pIC50 is defined as the negative base-10 logarithm of the molar concentration.

# count of solved cases: 5
I am curious: what pIC50 value has been reported for "CCc1ccc(NC(=S)N(Cc2ccc(OC)c(OC)c2)n2cnnc2)cc1" ?
4.64

pIC50 lookup needed for "N#Cc1ccc(CN(C(=S)Nc2cc(C(F)(F)F)cc(C(F)(F)F)c2)n2cnnc2)cc1" , thanks.
5.35

So what's the measured pIC50 for this one? CC1CCC(NC(=O)N(Cc2ccccn2)n2cnnc2)CC1 (configuration not stated)
4.40

// lookup pIC50 for "COc1ccc(CN(C(=S)Nc2ccc(F)c(Cl)c2)n2cnnc2)cc1OC"
4.68

Could you tell me which pIC50 is on file for "Cc1ccsc1CN(C(=O)Nc1cccc(C#N)c1)n1cnnc1" ?
4.54

More entries:
Sample "Cc1ccsc1CN(C(=O)Nc1ccc(Cl)c(C(F)(F)F)c1)n1cnnc1" — what was its pIC50?
4.66

May I ask what pIC50 has been recorded for "CCCCCCCCCNC(=S)N(Cc1cc(OC)ccc1OC)n1cnnc1" ?
4.53

What does the data say about its pIC50? Entry: "COc1cc(CN(C(=S)Nc2cc(C(F)(F)F)cc(C(F)(F)F)c2)n2cnnc2)cc(OC)c1OC"
5.25

# pIC50 lookup, item "N#Cc1ccc(CN(C(=O)Nc2ccccc2)n2cnnc2)cc1"
4.46

Which pIC50 value is on record for "O=C(NC1CCCCC1)N(Cc1ccccn1)n1cnnc1" ?
4.45

###

Below is a list of entries, each paired with its recorded pIC50 value.
Test system: MDA-MB-231
assay.method.text: Cytotoxicity in human MDA-MB-231 cells assessed as reduction in cell viability incubated for 48 hrs by MTT assay
Type: functional, cell-based
reported.conditions: MDA-MB-231, 48 h
Hey, just a heads up that pIC50 is the negative log base 10 of the concentration in molar.

For the compound shown here, "Cc1ccsc1CN(C(=O)Nc1cccc(Cl)c1)n1cnnc1" , give the reported pIC50.
4.40

For CC1CCC(NC(=O)N(Cc2ccccn2)n2cnnc2)CC1 (centres undefined) , what is its reported pIC50?
4.48

If you can, please state the reported pIC50 value of "COc1ccc(CN(C(=S)Nc2ccc(F)c(Cl)c2)n2cnnc2)cc1OC" .
4.55

Which pIC50 is listed for "O=C(NC1CCCCC1)N(Cc1ccccn1)n1cnnc1" ?
4.36

Name the recorded pIC50 for "N#Cc1ccc(CN(C(=S)Nc2cc(C(F)(F)F)cc(C(F)(F)F)c2)n2cnnc2)cc1" .
5.03

Others:
// pIC50 lookup, key: "CCc1ccc(NC(=S)N(Cc2cc(OC)c(OC)c(OC)c2)n2cnnc2)cc1"
4.61

May I ask what pIC50 has been recorded for "Cc1ccsc1CN(C(=O)Nc1ccc(Cl)c(C(F)(F)F)c1)n1cnnc1" ?
4.53

Find the recorded pIC50 belonging to "COc1ccc(CN(C(=S)Nc2cc(C(F)(F)F)cc(C(F)(F)F)c2)n2cnnc2)cc1OC" and report it.
4.60
